biological target: p110β/p85α (Homo sapiens, UniProt P42338); assay: Transcreener KINASE Assay, kinase inhibition of p110β/p85α; format: biochemical; conditions: 1 uM test compound
Sequence (P42338 whole entry): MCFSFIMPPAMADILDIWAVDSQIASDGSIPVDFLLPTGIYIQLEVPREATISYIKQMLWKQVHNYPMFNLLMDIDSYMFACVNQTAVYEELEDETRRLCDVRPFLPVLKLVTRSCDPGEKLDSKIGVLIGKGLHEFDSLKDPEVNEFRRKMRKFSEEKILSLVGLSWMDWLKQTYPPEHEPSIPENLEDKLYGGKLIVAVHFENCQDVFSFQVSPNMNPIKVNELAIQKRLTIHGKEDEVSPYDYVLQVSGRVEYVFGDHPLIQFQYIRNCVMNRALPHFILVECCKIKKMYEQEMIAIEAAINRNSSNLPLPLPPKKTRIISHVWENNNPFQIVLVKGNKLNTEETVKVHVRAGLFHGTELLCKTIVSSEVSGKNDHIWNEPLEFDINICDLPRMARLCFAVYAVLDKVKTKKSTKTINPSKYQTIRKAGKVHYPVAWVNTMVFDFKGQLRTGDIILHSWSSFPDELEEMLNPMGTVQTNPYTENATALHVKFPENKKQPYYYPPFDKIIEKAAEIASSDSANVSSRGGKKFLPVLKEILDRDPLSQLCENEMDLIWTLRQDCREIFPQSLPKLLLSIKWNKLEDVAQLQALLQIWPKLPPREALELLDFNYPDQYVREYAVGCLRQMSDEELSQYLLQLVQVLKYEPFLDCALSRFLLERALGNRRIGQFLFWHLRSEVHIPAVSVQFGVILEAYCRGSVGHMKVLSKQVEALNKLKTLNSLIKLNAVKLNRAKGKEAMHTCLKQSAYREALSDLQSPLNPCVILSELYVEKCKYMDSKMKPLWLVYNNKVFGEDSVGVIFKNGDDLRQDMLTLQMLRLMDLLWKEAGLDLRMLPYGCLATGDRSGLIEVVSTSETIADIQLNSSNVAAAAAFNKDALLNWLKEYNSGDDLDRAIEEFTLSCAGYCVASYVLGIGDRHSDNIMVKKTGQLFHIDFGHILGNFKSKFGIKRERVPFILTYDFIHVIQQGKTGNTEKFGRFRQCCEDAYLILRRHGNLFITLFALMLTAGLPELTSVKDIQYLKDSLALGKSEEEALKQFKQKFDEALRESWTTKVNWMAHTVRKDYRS
Sequence (P27986 2-724 partner): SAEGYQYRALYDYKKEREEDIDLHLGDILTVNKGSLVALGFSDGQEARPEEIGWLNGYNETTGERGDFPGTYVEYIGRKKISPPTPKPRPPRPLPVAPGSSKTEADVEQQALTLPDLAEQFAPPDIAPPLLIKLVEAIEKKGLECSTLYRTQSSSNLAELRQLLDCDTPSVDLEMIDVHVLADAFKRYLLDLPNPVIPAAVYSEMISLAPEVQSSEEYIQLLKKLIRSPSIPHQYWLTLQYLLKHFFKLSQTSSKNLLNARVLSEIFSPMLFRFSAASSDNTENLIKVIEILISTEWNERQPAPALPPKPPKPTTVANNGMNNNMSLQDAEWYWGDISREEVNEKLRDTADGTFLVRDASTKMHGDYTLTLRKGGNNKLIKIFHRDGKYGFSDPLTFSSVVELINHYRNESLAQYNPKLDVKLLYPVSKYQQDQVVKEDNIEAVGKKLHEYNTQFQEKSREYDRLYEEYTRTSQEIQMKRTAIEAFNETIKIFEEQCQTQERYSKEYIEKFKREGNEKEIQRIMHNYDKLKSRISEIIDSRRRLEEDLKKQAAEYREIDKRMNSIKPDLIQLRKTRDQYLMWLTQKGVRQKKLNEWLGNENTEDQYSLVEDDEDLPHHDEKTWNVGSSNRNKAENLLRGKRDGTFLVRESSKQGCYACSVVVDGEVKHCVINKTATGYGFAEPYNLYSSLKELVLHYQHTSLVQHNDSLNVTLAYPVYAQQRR
Please use the following PI3Kβ IH % @ 1 uM ranges when assigning a class: small value = under 40%, mid value = from 40% up to 80%, large value = 80% and over

compound="C[S+]([O-])c1c[nH]c2ncnc(N3CCC[C@H]3c3nn4ccc(Cl)c4c(=O)n3-c3cccc(F)c3)c12 (stereo partly drawn) [Compound 198]" experimental_system="p110β/p85α (Homo sapiens, UniProt P42338)" answer_label="large value"
compound=N#Cc1c[nH]c2ncnc(N3C[C@@H](C#N)C[C@H]3c3nn4ccc(Cl)c4c(=O)n3-c3cccc(F)c3)c12 experimental_system="p110β/p85α (Homo sapiens, UniProt P42338)" answer_label="large value"
compound="N#Cc1c[nH]c2ncnc(N3CCCC3c3cn4ccc(Cl)c4c(=O)n3-c3ccccc3)c12 (stereo not drawn)" experimental_system="p110β/p85α (Homo sapiens, UniProt P42338)" answer_label="large value"
compound="CC(Nc1ncnc2[nH]cnc12)c1cn2ccc(Cl)c2c(=O)n1-c1ccc(F)cc1 (stereo not drawn)" experimental_system="p110β/p85α (Homo sapiens, UniProt P42338)" answer_label="large value"
compound=CC(=O)c1cnc(N)nc1N1CC[C@H]1c1nn2ccc(C(F)(F)F)c2c(=O)n1-c1ccccc1 experimental_system="p110β/p85α (Homo sapiens, UniProt P42338)" answer_label="mid value"
compound="C[C@H]1CCN(c2ncnc3[nH]cc(C#N)c23)C1c1nn2ccc(Cl)c2c(=O)n1-c1ccccc1 (stereo partly drawn)" experimental_system="p110β/p85α (Homo sapiens, UniProt P42338)" answer_label="large value"
compound="CC(Nc1ncnc2[nH]cc(S(C)(=O)=O)c12)c1cn2ccc(Cl)c2c(=O)n1-c1ccccc1 (stereo not drawn)" experimental_system="p110β/p85α (Homo sapiens, UniProt P42338)" answer_label="small value"
compound=O=c1c2c(Cl)ccn2nc([C@@H]2CCCN2c2ncnc3[nH]cnc23)n1Cc1ncccn1 experimental_system="p110β/p85α (Homo sapiens, UniProt P42338)" answer_label="mid value"
compound=NC(=O)c1ccn2nc([C@@H]3CCCN3c3ncnc4[nH]cnc34)n(-c3ccccc3)c(=O)c12 experimental_system="p110β/p85α (Homo sapiens, UniProt P42338)" answer_label="small value"
compound=CC(=O)c1n[nH]c2ncnc(N3CC[C@H]3c3nn4ccc(Cl)c4c(=O)n3-c3ccccc3)c12 experimental_system="p110β/p85α (Homo sapiens, UniProt P42338)" answer_label="small value"
compound=Nc1ncnc(N2CCC[C@H]2c2nn3ccc(Cl)c3c(=O)n2-c2ccccc2)n1 experimental_system="p110β/p85α (Homo sapiens, UniProt P42338)" answer_label="mid value"
compound=C[S@+]([O-])c1c[nH]c2ncnc(N3CCC[C@H]3c3nn4ccc(F)c4c(=O)n3-c3ccccc3)c12 experimental_system="p110β/p85α (Homo sapiens, UniProt P42338)" answer_label="large value"
compound=C#Cc1ccn2nc([C@@H]3CCN3c3ncnc4[nH]cc(C#N)c34)n(-c3ccccc3)c(=O)c12 experimental_system="p110β/p85α (Homo sapiens, UniProt P42338)" answer_label="small value"

Source listed as patent US20150307520A1.
